These entries and their values trace back to patent US20100267561A1.

- Tested on: wild oat (Avena fatua)
- MEASUREMENT_NOTES: Test C pre-/postemergence plant response
- Type: in vivo
- APPLIED_CONDITIONS: Postemergence, 8 g ai/ha; scale 0 to 100, 0 no effect, 100 complete control
MEASUREMENT_NAME: Plant response rating, Oat, Wild
Numbers only.

# annotated cases, reported Plant response rating, Oat, Wild shown
[[record]]
smiles_record = "CCc1cc(-c2ccc(F)cc2)nn1-c1c(O)cnn(C)c1=O"
measurement_name = "Plant response rating, Oat, Wild"
number = 0

[[record]]
smiles_record = "CCc1cc(-c2ccc(C(F)(F)F)cc2)nn1-c1c(OS(C)(=O)=O)cnn(C)c1=O"
measurement_name = "Plant response rating, Oat, Wild"
number = 100

[[record]]
smiles_record = "CCc1c(C)c(-c2ccc(Cl)cc2)nn1-c1c(O)cnn(C)c1=O"
measurement_name = "Plant response rating, Oat, Wild"
number = 70

[[record]]
smiles_record = "CCc1cc(-c2ccc(Cl)c(Cl)c2)nn1-c1c(O)cnn(C)c1=O"
measurement_name = "Plant response rating, Oat, Wild"
number = 10


# Cc1cc(-c2ccc(Cl)cc2)nn1-c1c(OC(=O)OCC(C)C)cnn(C)c1=O with wild oat (Avena fatua): Plant response rating, Oat, Wild is 10
